Can you tell me collision cross section for the items I'm about to list?
# protocol_details: collision cross section of modified peptide (TIMS, N2, iRT-aligned); higher = larger / more extended gas-phase ion
# particulars: charge state: 3; modification: Formyl
Answers are plain numbers, in Å².

In the examples that follow, each entry is paired with its recorded collision cross section.
{"seq_text": "GFALVGVGSEASSKK [_GFALVGVGSEASSK(Formyl)K_]", "collision cross section (Å²)": 498.32}
{"seq_text": "VFIGNLNTLVVKKK [_VFIGNLNTLVVK(Formyl)KK_]", "collision cross section (Å²)": 499.94}
{"seq_text": "IHVQSSSDSSDEPAEKR [_IHVQSSSDSSDEPAEK(Formyl)R_]", "collision cross section (Å²)": 491.34}
{"seq_text": "GTITVSAQELKDNR [_GTITVSAQELK(Formyl)DNR_]", "collision cross section (Å²)": 471.67}
{"seq_text": "YEQEHAAIQDKLFQVAK [_YEQEHAAIQDK(Formyl)LFQVAK_]", "collision cross section (Å²)": 510.23}
{"seq_text": "SITHSTVGSKGEK [_SITHSTVGSK(Formyl)GEK_]", "collision cross section (Å²)": 435.39}
{"seq_text": "LQEKVESAQSEQK [_LQEK(Formyl)VESAQSEQK_]", "collision cross section (Å²)": 496.47}
{"seq_text": "ANEKTESSSAQQVAVSR [_ANEK(Formyl)TESSSAQQVAVSR_]", "collision cross section (Å²)": 523.66}
{"seq_text": "SSGPGGQNVNKVNSK [_SSGPGGQNVNK(Formyl)VNSK_]", "collision cross section (Å²)": 435.41}
{"seq_text": "VYIASSSGSTAIKK [_VYIASSSGSTAIK(Formyl)K_]", "collision cross section (Å²)": 497.96}

# batch size: 5; output collision cross section per entry
1. LFVGGIKEDTEEHHLR [_LFVGGIK(Formyl)EDTEEHHLR_]
2. VSPASSVDSNIPSSQGYKK [_VSPASSVDSNIPSSQGYK(Formyl)K_]
3. IHNAENIQPGEQKYEYK [_IHNAENIQPGEQK(Formyl)YEYK_]
4. STGLELETPSLVPVKK [_STGLELETPSLVPVK(Formyl)K_]
5. TEVLSPNSKVESK [_TEVLSPNSK(Formyl)VESK_]

Reply text:
[535.03, 550.3, 518.35, 516.5, 443.86]

# batch size: 2; output collision cross section per entry
1. SPSDSGYSYETIGKTTK [_SPSDSGYSYETIGK(Formyl)TTK_]
2. VPTTEKPTVTVNFR [_VPTTEK(Formyl)PTVTVNFR_]

Reply text:
1. 518.69
2. 502.93
